Kindly state pEC50 for each of the entries shown.
- target of assay: aromatase (Rattus norvegicus, UniProt P22443)
- Construct: ovarian microsomes are obtained from rats treated with pregnant mares serum gonadotropin
- Sequence (P22443 whole entry): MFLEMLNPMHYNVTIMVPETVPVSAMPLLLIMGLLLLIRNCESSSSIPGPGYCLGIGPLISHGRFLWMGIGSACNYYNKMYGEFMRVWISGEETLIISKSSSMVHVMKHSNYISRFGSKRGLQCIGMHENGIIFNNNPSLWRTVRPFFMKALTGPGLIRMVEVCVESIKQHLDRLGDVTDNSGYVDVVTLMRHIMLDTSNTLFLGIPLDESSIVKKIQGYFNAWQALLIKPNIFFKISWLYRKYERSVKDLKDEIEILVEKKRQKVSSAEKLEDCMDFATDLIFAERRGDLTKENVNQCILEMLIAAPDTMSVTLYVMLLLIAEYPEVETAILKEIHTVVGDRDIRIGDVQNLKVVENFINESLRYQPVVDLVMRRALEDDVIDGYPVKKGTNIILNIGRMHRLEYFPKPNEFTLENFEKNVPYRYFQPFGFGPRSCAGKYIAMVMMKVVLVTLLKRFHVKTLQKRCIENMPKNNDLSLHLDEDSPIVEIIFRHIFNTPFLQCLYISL
- experimental protocol: Aromatase inhibition in the rat ovarian microsome assay
- settings: rat ovarian microsomes; substrate (androstenedione) concentration 0.1 μM
Please keep in mind that pEC50 is minus log10 of the molar concentration; only the number is needed.

Prompt: State its pEC50 on aromatase (Rattus norvegicus, UniProt P22443): C=CCOC(Cn1ccnc1)c1ccc(Cl)cc1Cl (stereo not drawn)
Completion: 7.38

Prompt: Entry c1ccc(CCCn2ccnc2)cc1 [1-(3-phenylpropyl)imidazole] , system aromatase (Rattus norvegicus, UniProt P22443): what pEC50 was measured?
Completion: 6.31

Prompt: Identify the measured pEC50 of c1ccc(CCn2ccnc2)cc1 [1-(β-phenylethyl)imidazole] for aromatase (Rattus norvegicus, UniProt P22443).
Completion: 6.20

Prompt: Find the measured pEC50: item COc1ccc(OC)c(C(O)Cn2ccnc2)c1 (stereo not drawn) , target or system aromatase (Rattus norvegicus, UniProt P22443).
Completion: 5.82

Prompt: Report pEC50 for Clc1ccc(C(Cn2ccnc2)OCc2ccsc2Cl)c(Cl)c1 (stereo not drawn) tested on aromatase (Rattus norvegicus, UniProt P22443).
Completion: 7.22
